Note to self: these molecules have Ki reported for Vasopressin V1b receptor (Homo sapiens) in various publications.

CC(C)NC(=O)Cn1c(-c2cccc(Cl)c2)nc2ccc([C@H]3C[C@@H](CN4CCCC4)C3)cc2c1=O : 10 to 100 nM
COc1ccc(S(=O)(=O)N2C(=O)C(c3cc(CN(C)C(C)C)ccc3OC)(N3CCC[C@H]3c3ncco3)c3cc(Cl)ccc32)cc1 (stereo partly shown) : < 10 nM

Each molecule below has a reported value. Please supply its Ki.
1. COc1ccc(CN2CCCC2)cc1C1(N2CCC[C@H]2C(=O)N(C)C)C(=O)N(S(=O)(=O)c2ccc(C#N)cc2)c2ccc(Cl)cc21 (stereo partly shown)
2. CCOc1ncccc1[C@]1(NC(=O)N2CCC(N3CCN(C4COC4)CC3)CC2)C(=O)N(S(=O)(=O)c2ccc(OC)cc2)c2ccc(C#N)cc21

result:
["< 1 nM", "10 to 100 nM"]
